For each of the compounds below, state its pIC50.
- systemName: BTK (Homo sapiens (Human))
- Sequence (Q06187 whole entry, species assumed): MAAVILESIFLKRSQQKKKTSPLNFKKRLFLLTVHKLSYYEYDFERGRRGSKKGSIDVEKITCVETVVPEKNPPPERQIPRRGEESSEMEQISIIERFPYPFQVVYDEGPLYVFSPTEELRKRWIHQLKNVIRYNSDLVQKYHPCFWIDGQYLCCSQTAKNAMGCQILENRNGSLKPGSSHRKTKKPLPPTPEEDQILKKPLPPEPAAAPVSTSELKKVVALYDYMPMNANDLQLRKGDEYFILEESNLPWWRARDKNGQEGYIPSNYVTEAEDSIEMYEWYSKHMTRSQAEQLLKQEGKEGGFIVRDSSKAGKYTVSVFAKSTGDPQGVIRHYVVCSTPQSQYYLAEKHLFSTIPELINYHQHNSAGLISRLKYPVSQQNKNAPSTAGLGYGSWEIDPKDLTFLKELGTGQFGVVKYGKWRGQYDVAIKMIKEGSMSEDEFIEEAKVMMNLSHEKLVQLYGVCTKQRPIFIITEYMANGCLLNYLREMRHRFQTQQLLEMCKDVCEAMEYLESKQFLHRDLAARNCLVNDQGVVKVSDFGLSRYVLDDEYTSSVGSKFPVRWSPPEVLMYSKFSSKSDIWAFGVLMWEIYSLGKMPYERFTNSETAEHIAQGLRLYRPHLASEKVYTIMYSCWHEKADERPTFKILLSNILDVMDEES
- assayComment: Btk kinase assay (HTRF)
- Assay type: biochemical
- measurementSetup: [ATP]=80 μM, BTK=3.4 nM; read-out: BTK Inhibition
pIC50: −log10 of the molar value.

Kindly note the recorded pIC50 for C=CC(=O)N1CCC[C@@H](n2nc(-c3ccc(Oc4cccc(OC)c4F)cc3)c3cncc(OCCC)c32)C1 , which is > 8.00

Briefly, pIC50 measured for C=CC(=O)N1CCC[C@H](n2nc(-c3ccc(Oc4cccc(F)c4Cl)cc3)c3cnccc32)C1 : 7.00 to 8.00

Record C=CC(=O)N1CC[C@@H](n2nc(-c3ccc(Oc4cccc(OC)c4Cl)cc3)c3cnccc32)C1 , field pIC50: > 8.00

Lab note: C=CC(=O)N1CCCC(Cn2nc(-c3ccc(Oc4ccccc4)cc3)c3cnccc32)C1 (stereo not shown) gave pIC50 of 7.00 to 8.00

pIC50 in this record for C=CC(=O)N1CCC(n2nc(-c3ccc(NC(=O)c4cccc(C(F)(F)F)c4)cc3)c3cnccc32)C1 (stereo not shown) : 7.00 to 8.00

The recorded pIC50 for entry C=CC(=O)N1CCC[C@@H](n2nc(-c3ccc(Oc4cccc(OC)c4Cl)cc3)c3cnccc32)C1 equals > 8.00

Lookup result for C=CC(=O)N1CCC[C@@H](n2nc(-c3ccc(Oc4cccc5c4OCO5)cc3)c3cnccc32)C1 ; measured pIC50: 6.00 to 7.00

----------
Kindly state IC50 for each of the entries shown.
- systemName: LYN (Homo sapiens (Human), UniProt P07948)
- Sequence (P07948 whole entry, species assumed): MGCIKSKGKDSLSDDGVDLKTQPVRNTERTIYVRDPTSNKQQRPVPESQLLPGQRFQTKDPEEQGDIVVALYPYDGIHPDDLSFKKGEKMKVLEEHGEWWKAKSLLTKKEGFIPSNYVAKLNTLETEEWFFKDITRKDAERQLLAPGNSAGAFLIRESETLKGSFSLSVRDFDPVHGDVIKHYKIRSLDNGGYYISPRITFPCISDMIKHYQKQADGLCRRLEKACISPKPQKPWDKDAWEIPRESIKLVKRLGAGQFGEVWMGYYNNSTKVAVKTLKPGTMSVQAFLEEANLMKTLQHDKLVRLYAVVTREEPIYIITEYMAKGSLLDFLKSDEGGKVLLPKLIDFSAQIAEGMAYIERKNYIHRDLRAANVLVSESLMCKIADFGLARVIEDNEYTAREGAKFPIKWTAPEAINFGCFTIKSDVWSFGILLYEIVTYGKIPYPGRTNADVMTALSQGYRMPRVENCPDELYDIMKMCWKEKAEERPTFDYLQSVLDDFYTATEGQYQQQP
- assayComment: LYN kinase assay (HTRF)
- Type: biochemical
- measurementSetup: [ATP]=20 μM, LYN=0.12 nM

// compound C=CC(=O)N1CC[C@@H](n2nc(-c3ccc(Oc4ccccc4)cc3)c3cnccc32)C1 , assay LYN (Homo sapiens (Human), UniProt P07948), IC50 value: ≤ 10 µM

Record C=CC(=O)N1CCC[C@@H](n2nc(-c3ccc(Oc4cccc(OC)c4F)cc3)c3cncc(OC)c32)C1 ; system LYN (Homo sapiens (Human), UniProt P07948); IC50 = 1 to 10 µM

----------
- systemName: BTK (Homo sapiens (Human))
- assayComment: Btk kinase assay (HTRF)
- Format: biochemical
- measurementSetup: [ATP]=80 μM, BTK=3.4 nM; read-out: BTK Inhibition
metric: IC50

Let me check: C=CC(=O)N1CCC[C@@H](n2nc(-c3ccc(Oc4cccc(OC)c4F)cc3)c3cncc(OCCN(C)C)c32)C1 , system BTK (Homo sapiens (Human)), measured IC50 is < 0.01 µM

Hey, BTK (Homo sapiens (Human)) data for C=CC(=O)N1CCC[C@@H](n2nc(-c3ccc(C(=O)NCc4cccc(OC)c4)cc3)c3cnccc32)C1 : IC50 came out at 0.1 to 1 µM

The measured IC50 that CC#CC(=O)N1CCC[C@@H](n2nc(-c3ccc(Oc4cccc(OC)c4F)cc3)c3cncc(OCCN(C)C)c32)C1 showed for BTK (Homo sapiens (Human)) is 0.01 to 0.1 µM

Considering C=CC(=O)N1CC[C@@H](n2nc(-c3ccc(Oc4cccc(F)c4C)cc3)c3cnccc32)C1 , its IC50 with BTK (Homo sapiens (Human)) was recorded as 0.01 to 0.1 µM

Bench note, BTK (Homo sapiens (Human)): entry C=CC(=O)N1CCC[C@H](n2nc(-c3ccc(Oc4cccc(Cl)c4Cl)cc3)c3cnccc32)C1 , its IC50 = < 0.01 µM

Value (IC50, BTK (Homo sapiens (Human))) for record C=CC(=O)N1CCC[C@@H](n2nc(-c3ccc(Oc4cccc(OC)c4F)cc3)c3cncc(OCCN)c32)C1 = 0.01 to 0.1 µM

Noted IC50 for C=CC(=O)N1CCc2c(c(-c3ccc(Oc4cccc(OC)c4F)cc3)nn2[C@@H]2CCN(C(=O)C=C)C2)C1 , tested on BTK (Homo sapiens (Human)): > 10 µM
